Measured growth, listed per entry.
- Test system: SF-295 CNS
- assay.method.text: NCI-60 one-dose screen, 48 h (100 = growth as untreated, 0 = no growth, -100 = all killed)
- experimental.parameters: 10 µM unless noted
The panel holds about 83,000 compounds, 20% with a hit somewhere; the sample as a whole holds those more often.

compound	study.system	output.unit	growth
O=C(Nc1ccccc1Cl)Oc1ccc(-c2ccccc2)cc1	SF-295 CNS	%	114
COc1ccc(NC(=O)c2nc(-c3cc(OC)c(OC)c(OC)c3)n(-c3cccc4ccccc34)n2)cc1OC	SF-295 CNS	%	52.6
COc1ccc2cc(-c3cc(OC)c(OC)c(OC)c3)c(=O)oc2c1	SF-295 CNS	%	71.4
COc1cccc(Nc2nccc(Nc3ccc4[nH]ncc4c3)n2)c1	SF-295 CNS	%	16.2
COC1=C(OC)C(=O)C(OC)=C(OC)C1=O	SF-295 CNS	%	97.7
COc1cc(-c2nc(N3CCN(C)CC3)c3ccccc3n2)cc(OC)c1OC	SF-295 CNS	%	28.6
COc1ccc(Cl)cc1NC(=O)C(Br)C(Br)C(=O)O (stereo not given)	SF-295 CNS	%	99.8
COc1ccc(-c2cc(-c3cc(OC)ccc3OC)nc(SCC(=O)c3ccccc3)c2C#N)cc1	SF-295 CNS	%	104
CCCCCS(=O)(=O)Nc1ccc(C(=O)O)cc1	SF-295 CNS	%	110
COc1ccc(C2C(c3nn[nH]n3)=C(N)Oc3c2ccc2ccccc32)cc1 (stereo not given)	SF-295 CNS	%	77.8
N#C/C(=C/C=C/c1cccc(Cl)c1)S(=O)c1ccccc1 (stereo not given)	SF-295 CNS	%	-28.9
O=c1c2c3c(sc2nc(N/N=C/c2ccc(Br)cc2)n1Cc1ccccc1)CCCC3	SF-295 CNS	%	34.3
N[C@@H](CCCCNCC(=O)O)C(=O)O	SF-295 CNS	%	100
O=C(/C=C/c1cccc(O)c1)c1cccc(-n2cc(-c3ccc4ccccc4c3)[nH]c2=O)c1	SF-295 CNS	%	6.57
O=c1cc(C2NNC(=S)N2)c2ccc3ccccc3c2o1 (stereo not given)	SF-295 CNS	%	100
O=C1c2cccc(NCCN=Cc3cc([N+](=O)[O-])ccc3O)c2C(=O)c2c(NCCN=Cc3cc([N+](=O)[O-])ccc3O)cccc21	SF-295 CNS	%	73
O=C1/C(=C/c2ccc(Br)cc2)C=C(c2ccccc2)N1CCc1ccccc1	SF-295 CNS	%	-25.6
CCc1ccccc1NC(=O)/C(C#N)=C/c1ccc(OC)cc1	SF-295 CNS	%	91.9
Cc1ccc(/C=C/c2c(C(=O)/C=C/c3ccc(C(F)(F)F)cc3)c(C)nc3ccccc23)cc1	SF-295 CNS	%	-75.8
N#C/C(=C\c1ccc(-c2ccccc2F)o1)c1nc(-c2ccco2)cs1	SF-295 CNS	%	98.6
NCCCNc1nc2ccccc2c2c(=O)c3cccc(Cl)c3sc12	SF-295 CNS	%	26.8
COC(=O)[C@]12CC[C@@H](C)[C@H](C)[C@@H]1C1=CC[C@@H]3[C@@]4(C)C(C=O)=C[C@@](C)(COC(=O)c5ccco5)[C@@H]4C(=O)C[C@@]3(C)[C@]1(C)CC2	SF-295 CNS	%	34.4
Cc1nn(-c2ccccc2)c(Cl)c1/C=C(/NC(=O)c1ccccc1)c1nc2ccccc2[nH]1	SF-295 CNS	%	92.9
CCC(CO)Nc1nc2ccc(Cl)cc2c2ccccc12 (stereo not given)	SF-295 CNS	%	74.8
O=c1cc(-c2ccc(Cl)cc2)[nH]c2ccccc12	SF-295 CNS	%	84.1
COc1ccc(NC(=O)CSc2nnc(-c3cc(-c4ccc(S(N)(=O)=O)cc4)nc4ccccc34)n2-c2ccccc2)cc1	SF-295 CNS	%	94.5
C=C(C)[C@@H]1CC[C@]2(C(=O)NC3CCCCC3)CC[C@]3(C)[C@H](CC[C@@H]4[C@@]5(C)CCCNC(C)(C)[C@@H]5CC[C@]43C)[C@@H]12	SF-295 CNS	%	96.9
CC1(C)OC2C(CO[Si](C)(C)C(C)(C)C)OC(n3c(I)c(C#C[Si](C)(C)C)c(=O)[nH]c3=O)C2O1 (stereo not given)	SF-295 CNS	%	140
Cc1ccc(Cl)cc1NC(=O)c1cc2ccccc2cc1O	SF-295 CNS	%	-9.44
Cc1ccccc1NC(=O)N/C(N)=N/c1nc(-c2cccc([N+](=O)[O-])c2)cs1	SF-295 CNS	%	15.8
Cc1ccc(-n2c(-c3ccccc3)c(-c3ccccc3)c3c(SCC(=O)n4[nH]c(N)cc4=O)ncnc32)cc1	SF-295 CNS	%	89.3
CCCc1cc2c(=O)c(C(=O)OC)c[nH]c2cc1N(CC)CC	SF-295 CNS	%	85.2
Cc1cc(/C=C\c2ccc3ccccc3[n+]2C)c(O)c2ncccc12	SF-295 CNS	%	0.202
NC[C@H](O)c1ccc(O)c(O)c1	SF-295 CNS	%	123
N=C1C(c2nc(-c3ccc(Br)cc3)cs2)=C(O)CN1Cc1cccnc1	SF-295 CNS	%	37.2
Cc1cc(NCc2cc(Nc3ccnc4cc(Cl)ccc34)ccc2F)nc(N2CCN(C)CC2)n1	SF-295 CNS	%	-60.9
CCN(CC)CCn1nc2c3c(cccc3c1=O)-c1ccccc1-2	SF-295 CNS	%	7.02
Cc1ccc2nc(NC(=O)CSc3nc(Nc4ccc([N+](=O)[O-])cc4)c(C#N)c(-c4ccccc4)n3)sc2c1	SF-295 CNS	%	95.6
CC(=O)c1ccc(NCC(=O)Nc2ccccn2)cc1	SF-295 CNS	%	109
N#Cc1c(-c2ccccc2)cc(-c2ccc(Nc3nc(Nc4ccc(F)cc4)nc(Nc4ccc(F)cc4)n3)cc2)nc1N	SF-295 CNS	%	65

----------
- Tested on: KM12 colon
- assay.method.text: NCI-60 one-dose screen, 48 h
- experimental.parameters: 10 µM unless noted
About 83,000 compounds went through this panel and 20% of them were active in at least one assay; those are over-represented in the sample as a whole. Activity calls are given as the source filed them. Rule for the calls: active = growth percent below 10; inactive = the rest.
Labels: active, inactive

compound	study.system	qualitative.label
CNC(=O)CCN1CCN(CC/C=C2\c3ccccc3Sc3ccc(Cl)cc32)CC1	KM12 colon	inactive
O=C(Nc1cccc(Oc2nnc(Cl)c3ccccc23)c1)Nc1ccc(Cl)c(C(F)(F)F)c1	KM12 colon	active
Cc1cc(NCc2cc(Nc3ccnc4cc(Cl)ccc34)ccc2F)nc(N2CCSCC2)n1	KM12 colon	inactive
O=Cc1ccc(O)c2ncccc12	KM12 colon	inactive
Cc1ccc(NCCN(C)C)c2c(=O)c3ccccc3sc12	KM12 colon	inactive
NS(=O)(=O)c1ccc(-n2nc(C(=O)N/N=C\c3ccc(F)cc3)cc2-c2ccc(Cl)cc2)cc1	KM12 colon	inactive
Cc1occc1-c1n[nH]c(=S)n1N1C(=O)CSC1=S	KM12 colon	inactive
Cc1nc2ccccc2n1CC1NC(=O)NC1=O (centres undefined)	KM12 colon	inactive
S=C(c1ccc2c(c1)OCO2)N1CCN(c2ccccc2Cl)CC1	KM12 colon	inactive
C=C1C(=O)O[C@H]2[C@H]1CC/C(COC(=O)C(=O)c1c[nH]c3ccc(OC)cc13)=C\CC[C@@]1(C)O[C@@H]21	KM12 colon	active
O=C(/C=C/c1ccco1)c1ccc(Nc2nc(Nc3ccc(F)cc3)nc(Nc3ccc(Cl)cc3)n2)cc1	KM12 colon	inactive
COc1ccc2[nH]c(O)c(C(=Nc3ccc(N(C)C(=O)CN4CCN(C)CC4)cc3)c3ccccc3)c2c1	KM12 colon	inactive
Cc1ccc2nc(NC(=O)CSc3nc(-c4ccccc4)c(C#N)c(=O)n3Cc3ccccc3)sc2c1	KM12 colon	inactive
COc1ccc(-c2nc3ccc4[nH]ncc4c3c3c2CCCC3)cc1B(O)O	KM12 colon	inactive
N#Cc1c(-c2ccccc2)cc(-c2ccc(Nc3nc(Nc4ccc(F)cc4)nc(Nc4ccc(F)cc4)n3)cc2)nc1N	KM12 colon	inactive
CNC(=O)c1cc(Oc2cccc3nc(Nc4ccc(F)c(Cl)c4)ccc23)ccn1	KM12 colon	inactive
CC1O[C@@H](OC2[C@H](OC(=O)/C=C/c3ccc(O)c(O)c3)C(COC3O[C@H](C)C(O)C(O)[C@@H]3O)O[C@@H](OCCc3ccc(O)c(O)c3)[C@H]2O)[C@@H](O)C(O)[C@H]1O (some centres undefined)	KM12 colon	inactive
COCN1CCC2N(COC)CCC3N(COC)CCC1N23 (centres undefined)	KM12 colon	inactive
Cc1cc(C)c(-c2c(C)cc(C)cc2CBr)c(CBr)c1	KM12 colon	inactive

----------
- System: SW-620 colon
- assay.method.text: NCI-60 one-dose screen, 48 h (100 = growth as untreated, 0 = no growth, -100 = all killed)
- experimental.parameters: 10 µM unless noted
The panel holds about 83,000 compounds, 20% with a hit somewhere; the sample as a whole holds those more often. The source made the active and inactive calls. How the source made its calls: active means growth percent below 10; inactive means the rest.
measure.name: growth

In [3]: df
Out[3]:
                                   compound  measure_name            result
0  O=c1c2c3c(sc2nc(N/N=C/c2ccc(Br)cc2)n1Cc1ccccc1)CCCC3        growth  83.8% (inactive)
1  O=C(/C=C/c1ccco1)c1ccc(Nc2nc(Nc3ccc(F)cc3)nc(Nc3ccc(Cl)cc3)n2)cc1        growth  84.4% (inactive)
2  CN1CCN(CC(=O)Nc2nc(-c3cccc(NS(=O)(=O)c4cccc5c(N(C)C)cccc45)c3)cs2)CC1        growth  62.6% (inactive)
3  O=S(=O)(NCCCNc1cc(-c2c(-c3cccc(O)c3)nc3sccn23)ccn1)c1cccc(Cl)c1        growth  48.4% (inactive)
4  CCN(CC)c1ccc2nc3c4ccccc4c(=NC(=O)c4ccccc4-c4c5ccc(N(CC)CC)cc5[o+]c5cc(N(CC)CC)ccc45)cc-3oc2c1        growth   -38.7% (active)
5       O=Cc1c[nH]c2ccc(-c3csc4ccccc34)cc12        growth  15.6% (inactive)
6  CCOC(=O)c1c(/C=C/C(=O)O)nc2ccccc2c1/C=C/c1ccccc1        growth  30.1% (inactive)
7                  COc1nc(N(C)O)nc(N(C)O)n1        growth  34.6% (inactive)
8   Cc1cccc(NC(=O)N/C(N)=N/c2nc(C)c(C)s2)c1        growth  25.7% (inactive)
9  COc1ccc(C2c3ccc4ccccc4c3Oc3nc(C)[nH]c(=O)c32)cc1 (stereo not given)        growth  97.4% (inactive)
